Source of measurements: patent US20030068675

- experimentalTarget: T1, ZFP SBS#839 (synthetic)
- T1 chain: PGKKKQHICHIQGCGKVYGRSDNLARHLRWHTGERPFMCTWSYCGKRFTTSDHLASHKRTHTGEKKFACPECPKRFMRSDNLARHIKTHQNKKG
- assayExplanation: EMSA
- measurementContext: tags: MBP fusion
readout: pKd
Give bare numbers, as −log10 of the molar value.

Return reported pKd; argument: GAGTGTGAGG (dsDNA) DNA 1: GAGTGTGAGG DNA 2: CCTCACACTC 6.20
